System Tested: DNA-PK (Homo sapiens (Human))
Measurement Notes: DNA-PK/Biochemical Assay (FlashPlate kinase assay)
Run Conditions: 5 μM ATP, 90 min, room temperature
Observed Property: IC50

{"Compound": "COc1cc2ncc3[nH]nc(-c4ccc(C#N)c(Cl)c4)c3c2cc1OC", "Reported": "< 100 nM"}
{"Compound": "COc1cc2c(cc1OCC(O)CO)ncc1c2c(-c2ccc(C#N)cc2)nn1C (stereo not drawn)", "Reported": "> 500 nM"}
{"Compound": "COc1cc2ncc3[nH]nc(-c4ccc(C#N)c(N5CCCC5)c4)c3c2cc1OC", "Reported": "< 100 nM"}
{"Compound": "COc1cc2ncc3c(c(-c4ccc(C#N)cc4)nn3C)c2cc1OS(=O)(=O)c1ccc(C)cc1", "Reported": "100 to 500 nM"}
{"Compound": "COc1cc2ncc3c(c(-c4ccc(C#N)cc4)nn3C)c2cc1OC(C(=O)O)c1ccccc1 (stereo not drawn)", "Reported": "< 100 nM"}

Form field: reported IC50 of CCCn1nc(-c2ccc(C#N)cc2)c2c3cc(OC)c(OC)cc3ncc21 100 to 500 nM

So what does the record say about IC50 for COc1cc2ncc3c(c(-c4ccc(C#N)cc4)nn3C)c2cc1OCc1cc(Br)cs1 ? < 100 nM

# IC50 lookup, item COc1cc2ncc3c(c(-c4ccc(C#N)cc4)nn3C)c2cc1OC < 100 nM

IC50 for COc1cc2ncc3c(c(-c4ccc(C#N)cc4)nn3C)c2cc1O[C@@H](C(N)=O)c1ccc(F)cc1 ? < 100 nM

Any idea what its IC50 is? The compound is COc1cc2ncc3c(c(-c4ccc(C#N)cc4)nn3C)c2cc1OC(F)F < 100 nM

For the compound shown here, COc1cc2ncc3c(c(-c4ccc(C#N)cc4)nn3C)c2cc1OCc1cccc(-c2csc(C)n2)c1 , give the reported IC50. 100 to 500 nM

Quick one: IC50 for COc1cc2ncc3c(c(-c4ccc(C#N)cc4)nn3C)c2cc1OCc1ccc(CO)cc1 ? < 100 nM

Please give the measured IC50 for this compound: COc1cc2c(cc1O)ncc1c2c(-c2ccc(C#N)cc2)nn1C < 100 nM

What does the record list as IC50 for COC(=O)c1cc(-c2[nH]nc3cnc4cc(OC)c(OC)cc4c23)ccc1C#N ? < 100 nM

Given the compound COc1cc2ncc3c(c(-c4ccc(C#N)cc4)nn3C(C)C)c2cc1OC , what is its reported IC50? 100 to 500 nM

Endpoint output: IC50 of COc1cc2ncc3c(c(-c4ccccc4F)nn3C)c2cc1OC . Value? < 100 nM

Return reported IC50; argument: COc1cc2ncc3c(c(-c4ccc(C#N)cc4)nn3C)c2cc1OCc1cnc2[nH]ccc2c1 100 to 500 nM

Reported IC50 for COc1cc2c(cc1OC(F)F)ncc1c2c(-c2ccc(C#N)cc2)nn1C : what is it? > 500 nM

Fill in the blank: the reported IC50 of COc1cc2ncc3c(c(-c4ccc(C#N)cc4)nn3C)c2cc1OC(C(N)=O)c1ccc(F)cc1 (stereo not drawn) is ____. < 100 nM

Tell me the measured IC50 of COc1cc2ncc3c(c(-c4ccc(C#N)cc4)nn3C)c2cc1OCc1ccnc(C#N)c1 , please. 100 to 500 nM

Would you kindly share the measured IC50 for COc1cc2ncc3c(c(-c4ccc(C#N)cc4)nn3C#N)c2cc1OC ? 100 to 500 nM

Quick one: IC50 of COc1cc2ncc3c(c(-c4ccc(C#N)cc4)nn3C)c2cc1O[C@H](C(N)=O)c1ccc(F)cc1 ? < 100 nM

Dear colleague, I am looking for the recorded IC50 of the following compound: COc1cc2ncc3c(c(-c4ccc(C#N)cc4)nn3C)c2cc1OC(C(=O)O)c1cccs1 (stereo not drawn) < 100 nM

Any idea what IC50 was measured for COc1cc2ncc3c(c(-c4ccc(C#N)cc4F)nn3C)c2cc1OC(C(N)=O)c1ccc(F)cc1 (stereo not drawn) ? < 100 nM

Data origin, for the record: patent US8802712B2
